Hi there, I'd appreciate the recorded pIC50 for every entry that follows.
biological target: T1, recombinant CD47-Fc (Sino Biologics) (human, UniProt Q08722 19-139); experiment: competition ELISA: HIS-tagged SIRP α binding to plate-bound CD47-Fc, antibody titrated
T1 construct: Bought reagent; also called human CD47-Fc; not shown: Fc
# reply with the number alone; pIC50 is -log10 of concentration in mol/L

// query What value of pIC50 has been reported for the following binder? anti-CD47 AlivaMab antibody 144 (antibody, IgG1, V domains shown, Chimeric AlivaMab Mouse mAb from hybridoma: human V, CH1 and upper hinge, mouse middle hinge, CH2 and CH3, human kappa light chain; also called clone 144; mAb 144) VH: QVQLQESGPGLVKPSETLSLTCTVSGGSISSYYWSWIRQPPGKGLEWIGYIYYSGTTNYNPSLKSRVTISVDTSKNQFSLKLSSVTAADTAVYYCARKRGEFDYWGQGTLVTVSS VL: DIQMTQSPSSVSASEGDRVTITCRASQGISRWLAWYQQKPGKAPKLLIYAASSLQSGVPSRFSGSGSGTDFTLTISSLQPEDFATYYCQQANSFPLTFGGGTKVEIK
// result 8.00

// query What about anti-CD47 AlivaMab antibody 139 (antibody, IgG1, V domains shown, Chimeric AlivaMab Mouse mAb from hybridoma: human V, CH1 and upper hinge, mouse middle hinge, CH2 and CH3, human kappa light chain) VH: QVQLQESGPGLVKPSETLSLTCTVSGGSISNYYWSWIRQPPGKGLEWIGYIYYSGSTNYNPSLKSRVTISVDTSKNQFSLKLSSVTAADTAVYYCARSRYFDLWGRGTLVTVSS VL: DIQMTQSPSAMSASVGDRVTITCRASQGISIYLAWFQQKPGKVPKRLIYAASSLQSGVPSRFSGSGSGTEFTLTISSLQPEDFATYYCLQHTSYPYTFGQGTKLEIK ?
// result 8.66

// query Same again, this time with anti-CD47 AlivaMab antibody 87 (antibody, IgG1, V domains shown, Chimeric AlivaMab Mouse mAb from hybridoma: human V, CH1 and upper hinge, mouse middle hinge, CH2 and CH3, human kappa light chain; also called clone 87; mAb 87) VH: QVQLQESGPGLVKPSETLSLTCTVSGGSISSYYWSWIRQPPGKGLEWIGYIYYSGSTNYNPSLKSRVTISVDTSKNQFSLKLNSVTAADTAVYYCARKRAFLDYWGQGTLVTVSS VL: DIQMTQSPSSLSASVGDRVTITCRASQGISNYLAWFQQKPGKAPKSLIYAASSLQGGVPSKFSGSGSGTDFTLTISSLQPEDFATYYCQQYNSYPLTFGGGTKVEIK
// result 8.52
